The origin of these recorded values is patent US20260242478A1.

# maps each entry to its Phage binding ELISA, Anti-CD28 Fab signal in the presence of CD28
# system_name: T1, anti-CD28 Fab (SEQ ID NOs: 696, 697)
# T1 construct: In the phage ELISA the Fab was biotinylated and captured on neutravidin coated plates
# assay_notes: phage ELISA; biotinylated anti-CD28 Fab on neutravidin plate, wells pre-incubated with CD28 antigen as competitor, anti-M13 HRP detection
endpoint_label: Phage binding ELISA, Anti-CD28 Fab signal in the presence of CD28

| binder | endpoint_result |
| --- | --- |
| YCEGHLPEYIEKCL (also called Peptide-120) [Phage-481] | 0.08 |
| YCMGHSHEHIWKCL (also called Peptide-97) [Phage-476] | 0.07 |
| YCAGHSHEYLAKCE (also called Peptide-98) [Phage-477] | 0.06 |
| YCEGHEGIYFWKCL [Phage-480] | 0.06 |
| YCEGHAPEYIRKCL [Phage-483] | 0.08 |
| YCAGHTEEHYVKCM (also called Peptide-96) [Phage-475] | 0.07 |
| YCEGHRPEYILKCL [Phage-479] | 0.06 |
| DCPWLSGFSRPLLC (also called Peptide-93) [Phage-472] | 0.07 |
